Collected minimum inhibitory concentration values appear next to each entry.
Test system: Escherichia coli
EXPERIMENTAL PROTOCOL: minimum inhibitory concentration (MIC)
STATED CONDITIONS: isolate (source animal id): 15

These solved cases illustrate the format of a correct answer.
structure_smiles=CC[C@H]1OC(=O)C[C@@H](O)[C@H](C)[C@@H](O[C@@H]2O[C@H](C)[C@@H](O)[C@H](N(C)C)[C@H]2O)[C@@H](CCN2CCCCC2)C[C@@H](C)C(=O)/C=C/C(C)=C/[C@@H]1CN1CCCCC1 property="minimum inhibitory concentration" observed="4 µg/mL"
structure_smiles=CN(C)[C@@H]1C(O)=C(C(N)=O)C(=O)[C@@]2(O)C(O)=C3C(=O)c4c(O)cccc4[C@@](C)(O)[C@H]3C[C@@H]12 property="minimum inhibitory concentration" observed="> 8 µg/mL"
structure_smiles=CS(=O)(=O)c1ccc([C@@H](O)[C@@H](CF)NC(=O)C(Cl)Cl)cc1 property="minimum inhibitory concentration" observed="> 8 µg/mL"
structure_smiles=COc1cc(Cc2cnc(N)nc2N)cc(OC)c1OC.Cc1cc(NS(=O)(=O)c2ccc(N)cc2)no1 property="minimum inhibitory concentration" observed="≤ 2 µg/mL"

Proceed to the following item.
Incoming: Lookup: minimum inhibitory concentration / Escherichia coli / `CCC[C@@H]1C[C@@H](C(=O)N[C@@H]([C@H]2O[C@H](SC)[C@H](O)[C@@H](O)[C@H]2O)[C@H](C)Cl)N(C)C1`
Outgoing: > 16 µg/mL

* * *

System: Escherichia coli
EXPERIMENTAL PROTOCOL: minimum inhibitory concentration (MIC)
STATED CONDITIONS: isolate (source animal id): 131
PROPERTY: minimum inhibitory concentration (µg/mL)
Provide only the numeric value, understood in µg/mL.

structure_smiles=CN[C@@H]1[C@H](O)[C@H](NC)[C@H]2O[C@@]3(O)C(=O)C[C@@H](C)O[C@H]3O[C@@H]2[C@H]1O target_under_test="Escherichia coli" property="minimum inhibitory concentration" observed=16

Proceed to the following item.
Incoming: Report minimum inhibitory concentration for `CC[C@H]1OC(=O)C[C@@H](O)[C@H](C)[C@@H](O[C@@H]2O[C@H](C)[C@@H](O)[C@H](N(C)C)[C@H]2O)[C@@H](CCN2CCCCC2)C[C@@H](C)C(=O)/C=C/C(C)=C/[C@@H]1CN1CCCCC1` please.
Outgoing: 2

* * *

System: Histophilus somni
EXPERIMENTAL PROTOCOL: minimum inhibitory concentration (MIC)
STATED CONDITIONS: isolate (source animal id): 206
PROPERTY: minimum inhibitory concentration

structure_smiles=CS(=O)(=O)c1ccc([C@@H](O)[C@@H](CF)NC(=O)C(Cl)Cl)cc1 property="minimum inhibitory concentration" observed="≤ 0.25 µg/mL"

Incoming: Report minimum inhibitory concentration for `CO/N=C(\C(=O)N[C@@H]1C(=O)N2C(C(=O)O)=C(CSC(=O)c3ccco3)CS[C@H]12)c1csc(N)n1` please.
Outgoing: ≤ 0.25 µg/mL

Incoming: Report minimum inhibitory concentration for `NC[C@@H]1O[C@H](O[C@H]2[C@@H](O)[C@H](O[C@@H]3[C@@H](O)[C@H](N)C[C@H](N)[C@H]3O[C@H]3O[C@H](CN)[C@@H](O)[C@H](O)[C@H]3N)O[C@@H]2CO)[C@H](N)[C@@H](O)[C@@H]1O` please.
Outgoing: > 32 µg/mL

Incoming: Report minimum inhibitory concentration for `CCCN1C[C@H](C)[C@@H](O)[C@](C)(O)[C@@H](CC)OC(=O)[C@H](C)[C@@H](O[C@H]2C[C@@](C)(OC)[C@@H](O)[C@H](C)O2)[C@H](C)[C@@H](O[C@@H]2O[C@H](C)C[C@H](N(C)C)[C@H]2O)[C@](C)(O)C[C@H]1C` please.
Outgoing: ≤ 1 µg/mL

Incoming: Report minimum inhibitory concentration for `CN1C[C@@H]2C[C@H]1CN2c1cc2c(cc1F)c(=O)c(C(=O)O)cn2C1CC1` please.
Outgoing: ≤ 0.12 µg/mL

Incoming: Report minimum inhibitory concentration for `CC1(C)S[C@@H]2[C@H](NC(=O)Cc3ccccc3)C(=O)N2[C@H]1C(=O)O` please.
Outgoing: ≤ 0.12 µg/mL

Incoming: Report minimum inhibitory concentration for `CCN1CCN(c2cc3c(cc2F)c(=O)c(C(=O)O)cn3C2CC2)CC1` please.
Outgoing: ≤ 0.12 µg/mL

Sourced from the supplement of paper PMC8612539
